Hi there, I'd appreciate the recorded Ki for every entry that follows.
Target: Caspase-1 (Homo sapiens)
Assay: Caspase-1 enzyme inhibition (Ki)
Type: biochemical
Conditions: substrate Suc-YVAD-pNA 80 μM, 37° C., pH 7.5

Data request: Which Ki is listed for O=C[C@H](CC(=O)O)NC(=O)[C@@H]1CCCN1C(=O)[C@H](Cc1cccnc1)NC(=O)c1cc(Cl)c(O)c(Cl)c1 [Example 20n] ?
Data returned: < 10 nM

Data request: Endpoint output: Ki of CC(C)[C@H](NC(=O)c1cc2ccccc2[nH]1)C(=O)N1CCC[C@H]1C(=O)N[C@H](C=O)CC(=O)O . Value?
Data returned: < 10 nM

Data request: Can you share its Ki? I mean this compound: CC(C)[C@H](NC(=O)c1ccc(CSc2ccccn2)o1)C(=O)N1CCC[C@H]1C(=O)N[C@H](C=O)CC(=O)O
Data returned: 10 to 1000 nM

Data request: Which Ki value belongs to C[C@H](NC(=O)c1ccc(N)c(OC(F)(F)F)c1)C(=O)N1CCC[C@H]1C(=O)N[C@H](C=O)CC(=O)O ?
Data returned: 10 to 1000 nM

Data request: # query: Ki of entry CCCN(CCC)S(=O)(=O)c1ccc(C(=O)N[C@H](C(=O)N2CCC[C@H]2C(=O)N[C@H](C=O)CC(=O)O)C(C)C)cc1
Data returned: 10 to 1000 nM

Data request: Sample CC(NC(=O)c1ccc(N)c(Cl)c1)C(=O)N1N=CC(C)C1C(=O)NC(C=O)CC(=O)O (centres unmarked) [Example 23g] — what was its Ki?
Data returned: < 10 nM

Data request: I am curious: what Ki value has been reported for Cc1cc(C(=O)N[C@@H](C)C(=O)N2CC(F)(F)C[C@H]2C(=O)N[C@H](C=O)CC(=O)O)cc(C)c1O [Example 27j] ?
Data returned: 10 to 1000 nM

Data request: Field request: Ki | item: C[C@@H](O)[C@H](NC(=O)c1nccc2ccccc12)C(=O)N1CCC[C@H]1C(=O)N[C@H](C=O)CC(=O)O [Example 20d]
Data returned: 10 to 1000 nM

Data request: Entry COc1ccc(C(=O)N[C@H](C(=O)N2CCNC[C@H]2C(=O)N[C@H](C=O)CC(=O)O)C(C)C)cc1 [Example 15c] has what Ki?
Data returned: < 10 nM

Data request: # input compound: CCC(=O)Nc1ccc(C(=O)N[C@@H](C)C(=O)N2CCC[C@H]2C(=O)N[C@H](C=O)CC(=O)O)cc1Cl [Example 122t] ; wanted: its Ki
Data returned: 10 to 1000 nM

Data request: Data request, read-out Ki, for C[C@H](NC(=O)c1ccc(F)c(Cl)c1)C(=O)N1CCC[C@H]1C(=O)N[C@H](C=O)CC(=O)O
Data returned: < 10 nM

Data request: Quick check: Ki of CC(C)[C@H](NC(=O)c1nccc2ccccc12)C(=O)N1CC(c2ccccc2)[C@H]1C(=O)N[C@H](C=O)CC(=O)O (some centres unmarked) [Example 24c] ?
Data returned: < 10 nM

Data request: Dear colleague, I am looking for the recorded Ki of the following compound: C[C@H](NC(=O)c1ccc2c(c1)OCO2)C(=O)N1CCC[C@H]1C(=O)N[C@H](C=O)CC(=O)O
Data returned: 10 to 1000 nM

Data request: Data request, read-out Ki, for C[C@H](NC(=O)c1ccc(Cl)c(N)c1)C(=O)N1CCC[C@H]1C(=O)N[C@H](C=O)CC(=O)O
Data returned: 10 to 1000 nM

* * *

Target: Caspase-1 (Homo sapiens)
Test: Caspase-1 enzyme inhibition (Ki)
Assay type: biochemical
Settings: substrate Suc-YVAD-pNA 80 μM, 37° C., pH 7.5
pKi: −log10 of the molar value. Where a SMILES comes first, the peptide text is derived from it. [ ]: non-standard residue; d: D form. 4Abz = Nc1ccc(C(=O)O)cc1
Record form. Attribute: pKi. Fill in for each entry.

Data request: Any idea what pKi was measured for CC(C)[C@H](NC(=O)c1nccc2ccccc12)C(=O)N1C[C@H](c2ccccc2)C[C@H]1C(=O)N[C@H](C=O)CC(=O)O [Example 26h] ?
Data returned: > 8.00

Data request: Which pKi value belongs to Nc1ccc(C(=O)NCC(=O)N2CCC[C@H]2C(=O)N[C@H](C=O)CC(=O)O)cc1Cl ?
Data returned: < 6.00

Data request: # lookup: pKi of C[C@H](NC(=O)c1ccc(N)c(Cl)c1)C(=O)N1CCC[C@H]1C(=O)N[C@H](C=O)CC(=O)O [Example 122b]
Data returned: > 8.00

Data request: Need pKi of C[C@H](NC(=O)c1ccc(N)cc1)C(=O)N1CCC[C@H]1C(=O)N[C@H](C=O)CC(=O)O [Example 7aq] (H-[4Abz]APD-aldehyde) , thanks.
Data returned: 6.00 to 8.00

Data request: What value of measured pKi is listed for COc1c(C)cc(C(=O)N[C@@H](C)C(=O)N[C@@H](C)C(=O)N[C@H](C=O)CC(=O)O)cc1C [Example 29o] ?
Data returned: 6.00 to 8.00

Data request: Fill in the blank: the reported pKi of CC(C)[C@H](NC(=O)c1ccc(N)c(Cl)c1)C(=O)N1CC(F)(F)C[C@H]1C(=O)N[C@H](C=O)CC(=O)O [Example 27d] is ____.
Data returned: > 8.00

Data request: Can you share its pKi? I mean this molecule: Cc1oc(-c2ccccc2)cc1C(=O)N[C@H](C(=O)N1CCC[C@H]1C(=O)N[C@H](C=O)CC(=O)O)C(C)C
Data returned: 6.00 to 8.00

* * *

Molecular target: Caspase-1 (Homo sapiens)
Experiment: Caspase-1 enzyme inhibition (Ki)
Format: biochemical
Settings: substrate Suc-YVAD-pNA 80 μM, 37° C., pH 7.5
experimentalEndpoint: Ki

Data request: Any idea what Ki was measured for CC(C)[C@H](NC(=O)c1cccc2c1-c1ccccc1C2)C(=O)N1CCC[C@H]1C(=O)N[C@H](C=O)CC(=O)O [Example 5i] ?
Data returned: < 10 nM

Data request: Which value of Ki has been reported for CC(=O)NC(C(=O)N1N=C(C(C)(C)C)SC1C(=O)NC(C=O)CC(=O)O)C(C)C (stereo not shown) [Example 42] in the records?
Data returned: 10 to 1000 nM

Data request: # input compound: C[C@H](NS(=O)(=O)c1ccccc1)C(=O)N1CCC[C@H]1C(=O)N[C@H](C=O)CC(=O)O [Example 7ae] ; wanted: its Ki
Data returned: 10 to 1000 nM

Data request: Which Ki reading was recorded for the compound C[C@H](NC(=O)c1cnc2ccccc2n1)C(=O)N1CCC[C@H]1C(=O)N[C@H](C=O)CC(=O)O [Example 122j] ?
Data returned: 10 to 1000 nM

* * *

Biological target: Caspase-1 (Homo sapiens, UniProt P29466)
Sequence (P29466 120-297 limits assumed): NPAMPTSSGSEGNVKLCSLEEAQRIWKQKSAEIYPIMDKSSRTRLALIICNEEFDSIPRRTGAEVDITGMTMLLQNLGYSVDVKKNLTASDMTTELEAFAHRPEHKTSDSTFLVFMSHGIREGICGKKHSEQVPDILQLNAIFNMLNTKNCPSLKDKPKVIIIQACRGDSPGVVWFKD
Sequence (P29466 317-404 limits assumed): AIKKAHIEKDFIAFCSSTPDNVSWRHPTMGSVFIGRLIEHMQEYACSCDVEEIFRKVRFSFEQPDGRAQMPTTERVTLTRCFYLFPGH
Experiment: Caspase-1 enzyme inhibition (Ki)
Format: biochemical
Conditions: substrate Suc-YVAD-pNA 80 μM, 37° C., pH 7.5
experimentalEndpoint: Ki

Data request: Entry under review: COC1CC(C(=O)NC(C=O)CC(=O)O)N(C(=O)C(C)NC(=O)c2ccc(N)c(Cl)c2)C1 (centres unmarked) [Example 23i] . Reported Ki?
Data returned: 0.01 to 1 µM

Data request: Request the reported Ki associated with Cc1cc(C(=O)N[C@H](C(=O)N2CCNCC2C(=O)N[C@H](C=O)CC(=O)O)C(C)C)cc(C)c1O (some centres unmarked) [Example 15a]
Data returned: < 0.01 µM

Data request: Which Ki is reported for this compound? CC(NC(=O)c1ccc(N)c(Cl)c1)C(=O)N1CC(F)CC1C(=O)NC(C=O)CC(=O)O (centres unmarked) [Example 123a]
Data returned: 0.01 to 1 µM

Data request: What value of measured Ki is listed for CC(C)[C@H](NC(=O)C(c1ccccc1)c1ccccc1)C(=O)N1CCC[C@H]1C(=O)N[C@H](C=O)CC(=O)O [Example 5q] ?
Data returned: 0.01 to 1 µM

Data request: Could you tell me which Ki is on file for C[C@H](NC(=O)c1ccc(N)c(Cl)c1)C(=O)N1CC(F)(F)C[C@H]1C(=O)N[C@H](C=O)CC(=O)O [Example 27a] ?
Data returned: 0.01 to 1 µM

Data request: Data request, read-out Ki, for CN(NC(=O)N1CCCC1C(=O)NC(C=O)CC(=O)O)C(=O)c1nccc2ccccc12 (centres unmarked) [Example 34]
Data returned: > 1 µM

Data request: Find the recorded Ki belonging to Cc1cc(C(=O)N[C@@H](C)C(=O)N[C@@H](C)C(=O)N[C@H](C=O)CC(=O)O)cc(C)c1O [Example 29h] and report it.
Data returned: < 0.01 µM

Data request: Consider the compound Cc1cc(C(=O)N[C@H](C(=O)N2CCCC2C(=O)N[C@H](C=O)CC(=O)O)C(C)C)cc(C)c1O (some centres unmarked) [Example 65] and give its measured Ki.
Data returned: < 0.01 µM

Data request: For CC(C)NC(=O)N[C@@H]1C[C@@H](C(=O)N[C@H](C=O)CC(=O)O)N(C(=O)[C@@H](NC(=O)c2nccc3ccccc23)C(C)C)C1 [Example 9c] , what is its reported Ki?
Data returned: < 0.01 µM

Data request: Need Ki of CC(=O)Nc1c(Cl)cc(C(=O)N[C@@H](C)C(=O)N2CCC[C@H]2C(=O)N[C@H](C=O)CC(=O)O)cc1Cl [Example 7z] , thanks.
Data returned: 0.01 to 1 µM

Data request: Given C[C@H](NC(=O)c1cccc(C(F)(F)F)c1)C(=O)N1CC(F)(F)C[C@H]1C(=O)N[C@H](C=O)CC(=O)O [Example 27m] , state its recorded Ki.
Data returned: 0.01 to 1 µM

Data request: I am curious: what Ki value has been reported for CC(C)[C@H](NC(=O)c1nccc2ccccc12)C(=O)N1CCN(C)C[C@H]1C(=O)N[C@H](C=O)CC(=O)O [Example 17b] ?
Data returned: 0.01 to 1 µM

Data request: Please look up its Ki: CC(C)[C@H](NC(=O)c1ccccc1)C(=O)N1CC(c2ccccc2)[C@H]1C(=O)N[C@H](C=O)CC(=O)O (some centres unmarked) [Example 24a]
Data returned: < 0.01 µM

Data request: May I ask what Ki has been recorded for CC(C)[C@H](NC(=O)c1nccc2ccccc12)C(=O)N1CCNC[C@H]1C(=O)N[C@H](C=O)CC(=O)O [Example 15f] ?
Data returned: 0.01 to 1 µM
